The reported numbers originate from the MegaScale stability set (Tsuboyama et al. 2023).

B1: EHEE_rd2_0191 (parent)
chain: TTEYTFTDDEEARRAIEELKKRGLTFRYEKHGTTWRVRVD

Variants of: B1
PROCEDURE_TEXT: folding stability dG (cDNA display proteolysis); higher = more stable
RECORDED_CONDITIONS: PBS, room temperature
EXPERIMENTAL_ENDPOINT: folding stability dG (kcal/mol)
API: value field is a number in kcal/mol; no unit string.

// field: folding stability dG; key: "E29H" ; value = 1.83

// field: folding stability dG; key: "T33R" ; value = 1.8

// field: folding stability dG; key: "G23W" ; value = 0.206

// field: folding stability dG; key: "R13M" ; value = 2.42

// field: folding stability dG; key: "T33L" ; value = 1.91

// field: folding stability dG; key: "I16F" ; value = 1.37

// field: folding stability dG; key: "L19I" ; value = 1.55

// field: folding stability dG; key: "T7I" ; value = 1.68

// field: folding stability dG; key: "R14W" ; value = 1.68

// field: folding stability dG; key: "E29R" ; value = 1.77

// field: folding stability dG; key: "T1E" ; value = 1.93

// field: folding stability dG; key: "Y28T" ; value = 1.78

// field: folding stability dG; key: "R36S" ; value = 1.67

// field: folding stability dG; key: "T34K" ; value = 1.48

// field: folding stability dG; key: "E18T" ; value = 1.84

// field: folding stability dG; key: "D9H" ; value = 1.73

// field: folding stability dG; key: "T1W" ; value = 3.2

// field: folding stability dG; key: "A12F" ; value = 3.56

// field: folding stability dG; key: "T33W" ; value = 1.13

// field: folding stability dG; key: "D40M" ; value = 2.68
